- assay-explanation: Selectivity index, ratio of CC50 for MDBK cells to EC50 for Bovine viral diarrhea virus NADL
- Format: toxicity, cell-based
- condition-summary: cattle, read-out: Ratio CC50/EC50
Measured selectivity ratio of individual entries
recorded-endpoint: selectivity ratio

{"columns": ["smiles-representation", "recorded-endpoint", "reading"],
 "data": [
  ["CCN(CC)CC(=O)Nc1ccc(-c2nc3cc(C(F)(F)F)ccc3[nH]2)cc1", "selectivity ratio", 6.5],
  ["CC(=O)Nc1ccc(-c2nc3cc(C(F)(F)F)ccc3[nH]2)cc1", "selectivity ratio", 39],
  ["Nc1ccc(-c2nc3cc(Cl)c(Cl)cc3[nH]2)cc1", "selectivity ratio", 7.5],
  ["Nc1ccc(-c2nc3cc([N+](=O)[O-])ccc3[nH]2)cc1", "selectivity ratio", 53],
  ["CC(=O)Nc1ccc(-c2nc3cc([N+](=O)[O-])ccc3[nH]2)cc1", "selectivity ratio", "> 125"],
  ["O=C(CN1CCCC1)Nc1ccc(-c2nc3cc(C(F)(F)F)ccc3[nH]2)cc1", "selectivity ratio", 5],
  ["CC(=O)Nc1ccc(-c2nc3cc(Cl)c(Cl)cc3[nH]2)cc1", "selectivity ratio", 58]
]}

====

- assay-explanation: Cytotoxicity against BHK cells after 48 to 96 hrs by MTT assay
- Type: cell-based, Mesocricetus auratus
- condition-summary: hamster
The entries below come with measured CC50 values attached.

{"columns": ["compound", "CC50"],
 "data": [
  ["O=C(O)CCC(=O)Nc1ccc(-c2nc3cc(C(F)(F)F)ccc3[nH]2)cc1", "> 100 µM"],
  ["Nc1nc2c(ncn2COCCO)c(=O)[nH]1 [ACYCLOVIR]", "> 100 µM"],
  ["O=C(Nc1ccc(-c2nc3cc(C(F)(F)F)ccc3[nH]2)cc1)Nc1ccc(-c2nc3cc(C(F)(F)F)ccc3[nH]2)cc1", "17 µM"],
  ["Nc1ccc(-c2nc3cc(C(F)(F)F)ccc3n2C2CCCCC2)cc1", "> 100 µM"],
  ["COc1ccc(-c2nc3cc([N+](=O)[O-])ccc3[nH]2)c(OC)c1OC", "> 100 µM"],
  ["COc1ccc(-c2nc3cc(C(F)(F)F)ccc3[nH]2)c(OC)c1", "> 100 µM"],
  ["CC(=O)Nc1ccc(-c2nc3cc(Cl)c(Cl)cc3[nH]2)cc1", "> 100 µM"],
  ["COc1ccc(-c2nc3cc(C(F)(F)F)ccc3[nH]2)c(OC)c1OC", "32 µM"],
  ["CC(=O)Nc1ccc(-c2nc3cc(C(F)(F)F)ccc3n2C)cc1", "> 100 µM"],
  ["O=C(CN1CCCC1)Nc1ccc(-c2nc3cc(C(F)(F)F)ccc3[nH]2)cc1", "29 µM"],
  ["O=C(CN1CCCC1)Nc1ccc(-c2nc3cc(Cl)c(Cl)cc3[nH]2)cc1", "64 µM"],
  ["Fc1ccc(-c2nc3cc(C(F)(F)F)ccc3[nH]2)cc1", "25 µM"],
  ["O=c1cnn([C@@H]2O[C@H](CO)[C@@H](O)[C@H]2O)c(=O)[nH]1 (stereo in doubt; form 2) [6-AZAURIDINE]", "> 100 µM"],
  ["O=[N+]([O-])c1ccccc1-c1nc2ccccc2[nH]1", "> 100 µM"],
  ["CCC(=O)Nc1ccc(-c2nc3cc(C(F)(F)F)ccc3n2C23CC4CC(CC(C4)C2)C3)cc1", "> 100 µM"],
  ["COc1c(C)c2c(c(O)c1C/C=C(\\C)CCC(=O)O)C(=O)OC2 [MYCOPHENOLIC ACID]", "> 100 µM"],
  ["Cn1c(-c2ccc(NC(=O)CN3CCCC3)cc2)nc2cc(C(F)(F)F)ccc21", "27 µM"],
  ["Nc1ccc(-c2nc3cc(C(F)(F)F)ccc3[nH]2)cc1", "100 µM"],
  ["NC(=O)c1ncn([C@@H]2O[C@H](CO)[C@@H](O)[C@H]2O)n1 [RIBAVIRIN]", "> 100 µM"],
  ["COc1cc(OC)cc(-c2nc3cc(C(F)(F)F)ccc3[nH]2)c1", "> 100 µM"]
]}
